Catalogue of compounds with associated TGI
System: SW-620 colon
assay method text: NCI tumour cell line growth inhibition, 384-well format
test readout: TGI

- compound: "CN[C@@H](C)C(=O)N[C@H]1CN(C(=O)CC(C)C)CC[C@H]2CC[C@@H](C(=O)NC(c3ccccc3)c3ccccc3)N2C1=O"
  result: "> 100 µM"
- compound: "C[C@@H](N)C1CCC(C(=O)Nc2ccncc2)CC1 (some centres undefined)"
  result: "> 100 µM"
- compound: "Cc1cccc(-c2nn3c(c2-c2ccnc4ccc(C(N)=O)cc24)CCC3)n1"
  result: "15.6 µM"
- compound: "O=C(c1ccc(OCCN2CCCCC2)cc1)c1c(-c2ccc(O)cc2)sc2cc(O)ccc12"
  result: "25.1 µM"

###

Tested on: SW-620 colon
assay method text: NCI tumour cell line growth inhibition, 384-well format

- compound: "O=C(c1ccc(OCCN2CCCCC2)cc1)c1c(-c2ccc(O)cc2)sc2cc(O)ccc12"
  GI50: "12.5 µM"
- compound: "CN1CCC(CNc2ccc3ncc(-c4cccc(OC(F)(F)F)c4)n3n2)CC1"
  GI50: "1.6 µM"
- compound: "Cc1cc(C(=O)Nc2nc3cccc(Cl)c3n2[C@@H]2CCCCN(C(=O)/C=C/CN(C)C)C2)ccn1"
  GI50: "2.93 µM"
- compound: "C[C@@H](N)C1CCC(C(=O)Nc2ccncc2)CC1 (some centres undefined)"
  GI50: "92 µM"

###

Test system: HS 578T breast
assay method text: NCI tumour cell line growth inhibition, 384-well format

- molecule: "CN1CCC(CNc2ccc3ncc(-c4cccc(OC(F)(F)F)c4)n3n2)CC1"
  unit tag: "µM"
  censoring qualifier: "="
  TGI: 2.95
- molecule: "C[C@@H](N)C1CCC(C(=O)Nc2ccncc2)CC1 (stereo not given in full)"
  unit tag: "µM"
  censoring qualifier: ">"
  TGI: 100
- molecule: "Cc1cccc(-c2nn3c(c2-c2ccnc4ccc(C(N)=O)cc24)CCC3)n1"
  unit tag: "µM"
  censoring qualifier: "="
  TGI: 3.65
- molecule: "Cc1cc(C(=O)Nc2nc3cccc(Cl)c3n2[C@@H]2CCCCN(C(=O)/C=C/CN(C)C)C2)ccn1"
  unit tag: "µM"
  censoring qualifier: "="
  TGI: 6.37
- molecule: "CN[C@@H](C)C(=O)N[C@H]1CN(C(=O)CC(C)C)CC[C@H]2CC[C@@H](C(=O)NC(c3ccccc3)c3ccccc3)N2C1=O"
  unit tag: "µM"
  censoring qualifier: ">"
  TGI: 100
